Biological target: UniProt:P37058
Sequence (P37058 whole entry): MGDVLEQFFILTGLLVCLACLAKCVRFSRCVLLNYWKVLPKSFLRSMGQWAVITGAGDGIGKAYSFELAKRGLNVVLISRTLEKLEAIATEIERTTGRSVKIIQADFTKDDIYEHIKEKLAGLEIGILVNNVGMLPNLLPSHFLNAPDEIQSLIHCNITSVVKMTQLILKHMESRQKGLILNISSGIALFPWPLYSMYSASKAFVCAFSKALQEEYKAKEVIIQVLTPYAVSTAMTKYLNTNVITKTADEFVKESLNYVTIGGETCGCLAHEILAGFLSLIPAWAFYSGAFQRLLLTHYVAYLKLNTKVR
Assay: Percent inhibition against type-3 17-beta-HSD expressed in HEK293 cells at 3 uM
Type: cell-based
test_readout: inhibition (%)
Quick reminder: number only, in %, skip the unit.

INPUT: Would you mind telling me what inhibition value was observed for C[C@]12CC[C@](O)(c3ccccc3)CC1CC[C@@H]1[C@@H]2CC[C@]2(C)C(=O)CC[C@@H]12 (stereo not given in full) ?
OUTPUT: 95

INPUT: Note, next up: C[C@]12CC[C@](O)(CC3CCCCC3)CC1CC[C@@H]1[C@@H]2CC[C@]2(C)C(=O)CC[C@@H]12 (stereo not given in full)
OUTPUT: 95
